- Protocol Text: Stability of LuxSit-i variants (yeast display protease resistance, static light scattering)
- Format: physicochemical
- Study Conditions: Table 3; combined substitutions; relative to LuxSit-i
Reported Metric: Stability improvement

Previously resolved entries follow.
INSERT INTO measurements (molecule, reported_metric, reported_result) VALUES
  ('MBIO-148: LuxSit-i variant W100F_A85F_H87L_Q64W, SEQ ID NO: 2600 (SEQ ID NO 2 in Table 4) (protein) MSEEQIRQFLRRFYEALDSGDADTAASLFHPGVTIHLWDGVTFTSREEFREWFERLFSTSKDAWREIKSLEVRGDTVEVHVQLHFTLNGQKHTVDLTHHFHFRGNRVTEVRVHINPTG', 'Stability improvement', 'Monomeric'),
  ('MBIO-152: LuxSit-i variant F9S_A85F_H87L_Q64W, SEQ ID NO: 6 (protein) MSEEQIRQSLRRFYEALDSGDADTAASLFHPGVTIHLWDGVTFTSREEFREWFERLFSTSKDAWREIKSLEVRGDTVEVHVQLHFTLNGQKHTVDLTHHWHFRGNRVTEVRVHINPTG', 'Stability improvement', 'Slight improvement'),
  ('MBIO-155: LuxSit-i variant F9V_A85F_H87L_Q64W, SEQ ID NO: 4 (protein) MSEEQIRQVLRRFYEALDSGDADTAASLFHPGVTIHLWDGVTFTSREEFREWFERLFSTSKDAWREIKSLEVRGDTVEVHVQLHFTLNGQKHTVDLTHHWHFRGNRVTEVRVHINPTG', 'Stability improvement', 'Slight improvement'),
  ('MBIO-147: LuxSit-i variant W100F_A85F_H87L, SEQ ID NO: 3 (protein) MSEEQIRQFLRRFYEALDSGDADTAASLFHPGVTIHLWDGVTFTSREEFREWFERLFSTSKDAQREIKSLEVRGDTVEVHVQLHFTLNGQKHTVDLTHHFHFRGNRVTEVRVHINPTG', 'Stability improvement', 'Monomeric');

With those in mind, consider the next molecule.
Q. Tell me measured Stability improvement for MBIO-154: LuxSit-i variant F9V_A85F_H87L, SEQ ID NO: 5 (protein) MSEEQIRQVLRRFYEALDSGDADTAASLFHPGVTIHLWDGVTFTSREEFREWFERLFSTSKDAQREIKSLEVRGDTVEVHVQLHFTLNGQKHTVDLTHHWHFRGNRVTEVRVHINPTG please.
A. Slight improvement
